Just for reference, patent US9981944B2 is where these values come from.

# target: HIS-TGFβR1 T204D (Homo sapiens (Human), UniProt P36897, T204D)
# Sequence (P36897 34-503 T204D): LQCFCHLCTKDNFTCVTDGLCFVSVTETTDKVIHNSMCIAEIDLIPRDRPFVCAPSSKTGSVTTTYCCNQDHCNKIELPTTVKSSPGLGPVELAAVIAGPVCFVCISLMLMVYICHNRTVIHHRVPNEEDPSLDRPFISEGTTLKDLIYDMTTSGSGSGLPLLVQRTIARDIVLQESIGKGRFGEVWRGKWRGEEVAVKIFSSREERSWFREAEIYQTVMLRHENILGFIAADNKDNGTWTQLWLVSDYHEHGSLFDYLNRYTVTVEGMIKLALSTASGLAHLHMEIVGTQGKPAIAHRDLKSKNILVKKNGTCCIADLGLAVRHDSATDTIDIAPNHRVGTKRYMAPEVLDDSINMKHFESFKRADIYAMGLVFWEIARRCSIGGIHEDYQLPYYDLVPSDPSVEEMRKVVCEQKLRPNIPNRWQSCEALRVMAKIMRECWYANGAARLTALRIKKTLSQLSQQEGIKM
# protocol: HTRF probe displacement assay, HIS-TGFβR1 T204D
# condition_set: 1 nM HIS-TGFβR1 T204D, 1 hour at room temperature, read-out: TGFBR1T204D IC50
# Protocol: Compounds were dissolved at 10 mM in dimethylsulfoxide (DMSO) and evaluated at eleven concentrations. IC50 values were derived by non-linear regression analysis.
pIC50: −log10 of the molar value.
Please enter fulfilled where pIC50 is greater than or equal to 8, and not fulfilled where it is lower.

Here's what some known entries look like.
> print(dat)
                         structure.notation  category.label
1        Cc1cccc(-c2ncccc2-c2ccc3nccn3c2)n1       fulfilled
2  Cc1cccc(-c2ncccc2-c2ccc3ncc(C(=O)O)n3n2)n1   not fulfilled
3  Cc1nc(-c2ncc(F)cc2-c2ccc3ncc(C(N)=O)n3c2)ccc1F       fulfilled
4  NC(=O)c1cnc2ccc(-c3cccnc3-c3cccc(Cl)n3)cn12       fulfilled

stdin: Reported pIC50 at or above 8? "N#Cc1cnn2ccc(-c3cccnc3-c3cccc(C(F)(F)F)n3)nc12"
stdout: not fulfilled

stdin: Reported pIC50 at or above 8? "NC(=O)c1cnc2ccc(-c3cc(F)cnc3-c3cccc(C(F)F)n3)cn12"
stdout: fulfilled

stdin: Reported pIC50 at or above 8? "CC(=O)Nc1cn2cc(-c3cccnc3-c3ccc(F)c(C)n3)ccc2n1"
stdout: fulfilled
